Source: patent US20260297108A1

- TEST TARGET: UniProtKB Q9Y2I7
- Sequence (Q9Y2I7 whole entry): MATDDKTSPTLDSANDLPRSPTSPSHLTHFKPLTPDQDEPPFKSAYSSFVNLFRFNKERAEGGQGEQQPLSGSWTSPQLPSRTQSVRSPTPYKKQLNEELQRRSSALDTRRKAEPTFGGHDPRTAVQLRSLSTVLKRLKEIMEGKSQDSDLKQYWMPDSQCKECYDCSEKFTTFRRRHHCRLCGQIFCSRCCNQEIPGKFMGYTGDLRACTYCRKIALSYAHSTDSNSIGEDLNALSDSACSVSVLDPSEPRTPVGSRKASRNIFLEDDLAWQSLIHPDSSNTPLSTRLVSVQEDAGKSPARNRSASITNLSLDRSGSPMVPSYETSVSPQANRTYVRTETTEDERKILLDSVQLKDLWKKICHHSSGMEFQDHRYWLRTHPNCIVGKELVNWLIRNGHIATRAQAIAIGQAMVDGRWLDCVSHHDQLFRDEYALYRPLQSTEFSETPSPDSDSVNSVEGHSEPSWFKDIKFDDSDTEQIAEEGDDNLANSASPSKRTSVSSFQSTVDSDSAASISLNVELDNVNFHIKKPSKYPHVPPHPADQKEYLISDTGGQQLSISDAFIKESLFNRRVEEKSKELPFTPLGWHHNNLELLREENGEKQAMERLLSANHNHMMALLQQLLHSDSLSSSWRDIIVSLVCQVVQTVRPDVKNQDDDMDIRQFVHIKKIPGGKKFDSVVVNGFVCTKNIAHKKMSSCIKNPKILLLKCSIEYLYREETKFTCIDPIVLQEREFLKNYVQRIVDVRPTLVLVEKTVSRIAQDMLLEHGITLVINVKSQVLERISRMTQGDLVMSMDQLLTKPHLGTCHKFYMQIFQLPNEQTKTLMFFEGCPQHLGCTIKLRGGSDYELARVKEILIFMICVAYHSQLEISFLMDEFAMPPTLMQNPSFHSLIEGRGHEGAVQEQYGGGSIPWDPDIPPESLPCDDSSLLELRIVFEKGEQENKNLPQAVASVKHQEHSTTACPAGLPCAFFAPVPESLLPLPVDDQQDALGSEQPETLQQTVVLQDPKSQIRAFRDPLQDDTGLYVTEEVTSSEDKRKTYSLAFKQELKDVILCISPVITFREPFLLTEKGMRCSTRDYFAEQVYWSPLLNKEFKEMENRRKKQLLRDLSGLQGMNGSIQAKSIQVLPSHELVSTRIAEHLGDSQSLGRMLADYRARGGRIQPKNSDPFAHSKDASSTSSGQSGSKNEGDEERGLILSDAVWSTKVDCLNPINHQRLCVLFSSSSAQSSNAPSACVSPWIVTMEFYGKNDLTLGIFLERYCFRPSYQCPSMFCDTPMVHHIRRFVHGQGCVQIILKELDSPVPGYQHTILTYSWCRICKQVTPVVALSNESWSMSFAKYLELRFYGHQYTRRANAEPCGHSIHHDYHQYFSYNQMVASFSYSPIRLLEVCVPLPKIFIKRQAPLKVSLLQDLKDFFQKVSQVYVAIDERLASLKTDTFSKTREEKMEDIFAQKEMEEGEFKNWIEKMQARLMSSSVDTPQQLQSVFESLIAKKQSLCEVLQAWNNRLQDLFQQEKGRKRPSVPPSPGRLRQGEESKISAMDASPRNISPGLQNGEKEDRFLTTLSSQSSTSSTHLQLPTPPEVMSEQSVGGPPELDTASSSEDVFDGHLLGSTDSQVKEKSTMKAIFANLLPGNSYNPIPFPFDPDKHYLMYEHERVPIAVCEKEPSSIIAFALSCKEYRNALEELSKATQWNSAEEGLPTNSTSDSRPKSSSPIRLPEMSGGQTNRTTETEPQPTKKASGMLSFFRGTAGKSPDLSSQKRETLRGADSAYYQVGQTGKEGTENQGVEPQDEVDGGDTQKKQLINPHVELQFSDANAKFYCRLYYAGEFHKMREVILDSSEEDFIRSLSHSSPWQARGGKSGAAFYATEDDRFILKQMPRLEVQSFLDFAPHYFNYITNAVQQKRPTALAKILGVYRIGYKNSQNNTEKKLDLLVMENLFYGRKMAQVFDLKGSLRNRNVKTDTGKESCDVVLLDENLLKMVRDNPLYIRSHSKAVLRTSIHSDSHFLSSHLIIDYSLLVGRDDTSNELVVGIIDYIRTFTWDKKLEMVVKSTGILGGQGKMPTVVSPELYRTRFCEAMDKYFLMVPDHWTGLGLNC
- ASSAY DETAILS: KINOMEscan Kinase Assay (PIKFYVE inhibitory activity)
- CONDITIONS: read-out: PIKfyve Activity (PIKfyve % inhibition)
// reported inhibition at 0.001 µM per item

Completed entries (count: 2):
{"COMPOUND": "Cc1cccc(-c2ccn(-c3cc(N4CCOCC4)c4sc(C(=O)N5CCN(C)CC5)cc4n3)n2)c1", "MEASURED RESULT": "52 to 100%"}
{"COMPOUND": "Cc1cccc(-c2ccn(-c3cc(N4CCOCC4)c4nc(C(=O)NC5CC5)n(C)c4n3)n2)c1", "MEASURED RESULT": "52 to 100%"}

Would you kindly look at the next entry?
I'd like to know its inhibition at 0.001 µM. The compound in question is Cc1cccc(-c2ccn(-c3cc(N4CCOCC4)c4sc(C(=O)NC5CCN(C)C5)cc4n3)n2)c1 (stereo not drawn) 52 to 100%
